Give measured melting point for each item. Keep answers brief.

[Q] Recall and state the measured melting point for Cc1ccc(Cl)cc1NC(=O)N1CCN(Cc2nc3ccccc3c(=O)[nH]2)CC1C (stereo not shown) .
[A] 189.5 to 190.8 °C

[Q] Give melting point for Cc1c(Br)cccc1NC(=O)N1CCN(Cc2nc3ccccc3c(=O)[nH]2)CC1
[A] 200.6 to 202.2 °C

[Q] Read off the recorded melting point for O=C(Nc1cc(F)ccc1F)N1CCN(Cc2nc3ccccc3c(=O)[nH]2)CC1
[A] 202.1 to 204.2 °C

[Q] Retrieve melting point measured for Cc1ccc(NC(=O)N2CCN(Cc3nc4ccccc4c(=O)[nH]3)CC2)cc1C and print it.
[A] 194.4 to 196.1 °C

[Q] Answer with the recorded melting point for the compound listed here: Cc1ccc(Cl)c(NC(=O)N2CCN(Cc3nc4ccccc4c(=O)[nH]3)CC2)c1
[A] 196.7 to 198.7 °C

[Q] Complete the entry with melting point for Cc1ccc(Cl)cc1NC(=O)N1CCN(Cc2nc3ccccc3c(=O)[nH]2)CC1
[A] 203.1 to 204.7 °C

[Q] Quick one: give measured melting point for Cc1ccc(Cl)cc1NC(=O)N1C2CC1CN(Cc1nc3cc(F)c(F)cc3c(=O)[nH]1)C2
[A] 194.4 to 195.8 °C

[Q] Quote melting point reported for O=C(Nc1cc(C(F)(F)F)cc(C(F)(F)F)c1)N1CCN(Cc2nc3ccccc3c(=O)[nH]2)CC1 please.
[A] 204.2 to 206.1 °C

[Q] Fill in melting point for record O=C(Nc1ccccc1Cl)N1CCN(Cc2nc3ccccc3c(=O)[nH]2)CC1
[A] 197.9 to 199.6 °C

[Q] Provide one value: measured melting point of Cc1cccc(C)c1NC(=O)N1CCN(Cc2nc3ccccc3c(=O)[nH]2)CC1
[A] 200.3 to 201.9 °C

[Q] Assign melting point to the following record: Cc1ccc(Cl)cc1NC(=O)N1C2CC1CN(Cc1nc3cc(Cl)ccc3c(=O)[nH]1)C2
[A] 192.3 to 194.1 °C

[Q] State its melting point: O=C(Nc1c(F)cccc1Cl)N1CCN(Cc2nc3ccccc3c(=O)[nH]2)CC1
[A] 198.4 to 199.8 °C

[Q] Please supply the value of reported melting point for the item O=C(Nc1cccc(F)c1F)N1CCN(Cc2nc3ccccc3c(=O)[nH]2)CC1
[A] 188.2 to 189.9 °C

[Q] // Input: Cc1ccc(F)c(NC(=O)N2CCN(Cc3nc4ccccc4c(=O)[nH]3)CC2)c1 . Output its melting point only.
[A] 199.5 to 201.1 °C

[Q] Given the compound O=C(Nc1ccccc1F)N1CCN(Cc2nc3ccccc3c(=O)[nH]2)CC1 , write its reported melting point.
[A] 192.5 to 194.2 °C

[Q] State its melting point for this compound: Cc1cccc(NC(=O)N2CCN(Cc3nc4ccccc4c(=O)[nH]3)CC2)c1F
[A] 200.5 to 202.1 °C

[Q] // Input: Cc1ccc(NC(=O)N2CCN(Cc3nc4ccccc4c(=O)[nH]3)CC2)cc1 . Output its melting point only.
[A] 197.7 to 199.5 °C

[Q] Look up and state reported melting point for Cc1cccc(NC(=O)N2CCN(Cc3nc4ccccc4c(=O)[nH]3)CC2)c1
[A] 197.8 to 200.2 °C

[Q] Return melting point for the following compound: O=C(Nc1ccc(F)cc1)N1CCN(Cc2nc3ccccc3c(=O)[nH]2)CC1
[A] 196.5 to 197.8 °C
